Source: patent US8822517B2

target or system: serotonine transporter (SERT) receptor (Homo sapiens)
Construct: expressed in transfected cells; host or cells: CHO cells
Sequence (P31645 whole entry): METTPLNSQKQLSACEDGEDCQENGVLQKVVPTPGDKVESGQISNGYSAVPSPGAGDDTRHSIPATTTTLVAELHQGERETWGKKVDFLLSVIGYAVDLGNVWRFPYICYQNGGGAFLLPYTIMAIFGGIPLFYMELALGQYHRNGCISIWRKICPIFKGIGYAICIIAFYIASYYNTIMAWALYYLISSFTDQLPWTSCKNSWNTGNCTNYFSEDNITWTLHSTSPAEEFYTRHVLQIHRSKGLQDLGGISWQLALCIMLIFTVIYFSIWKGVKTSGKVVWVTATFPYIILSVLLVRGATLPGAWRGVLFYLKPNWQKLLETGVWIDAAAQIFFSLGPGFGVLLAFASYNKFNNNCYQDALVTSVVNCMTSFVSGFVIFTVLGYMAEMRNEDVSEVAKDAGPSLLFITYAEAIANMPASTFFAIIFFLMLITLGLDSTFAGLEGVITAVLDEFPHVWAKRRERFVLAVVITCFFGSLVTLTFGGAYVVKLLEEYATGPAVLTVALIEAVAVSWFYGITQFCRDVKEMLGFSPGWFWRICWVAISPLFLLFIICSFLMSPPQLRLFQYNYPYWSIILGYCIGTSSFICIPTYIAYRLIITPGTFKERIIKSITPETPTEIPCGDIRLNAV
assay: Binding assay SERT (h), [3H]imipramine, CHO cells
conditions: read-out: SERT [%]
reported property: inhibition at 1 µM (%)
Return type: number; implicit unit %.

query: Fill in: inhibition at 1 µM of O=S(=O)(NCCCN1CCN(c2nsc3ccccc23)CC1)c1ccc(Cl)c(Cl)c1 [Compound 251] is ___
result: 87

query: For the compound COc1cccc(S(=O)(=O)NCCCCN2CCN(c3cccc4c3OCCO4)CC2)c1 [Compound 394] , what inhibition at 1 µM is on record?
result: 12

query: # inhibition at 1 µM lookup, item Cc1cccc(S(=O)(=O)NCCCN2CCN(c3cccc4[nH]c(=O)[nH]c34)CC2)c1 [Compound 426]
result: -18

query: Reported inhibition at 1 µM, compound O=S(=O)(NCCCCN1CCN(c2noc3ccccc23)CC1)c1cccc(Cl)c1 [Compound 85] : ____
result: 2

query: Would you kindly share the measured inhibition at 1 µM for O=S(=O)(NCCCCN1CCC(c2noc3cc(F)ccc23)CC1)c1ccc2c(c1)OCO2 [Compound 320] ?
result: 13

query: Find the recorded inhibition at 1 µM belonging to Cc1c(S(=O)(=O)NCCCCN2CCC(c3noc4cc(F)ccc34)CC2)sc2ccc(Cl)cc12 [Compound 315] and report it.
result: 68

query: # get_value(readout='inhibition at 1 µM', item= O=S(=O)(NCCCN1CCN(c2nsc3ccccc23)CC1)c1ccc(Cl)cc1 [Compound 250] )
result: 23

query: What value of inhibition at 1 µM has been reported for the following compound? O=C1COc2c(cccc2N2CCN(CCCCNS(=O)(=O)c3cccc(F)c3)CC2)N1 [Compound 211]
result: 33

* * *

For each of the compounds below, state its activation at 1 µM.
target or system: serotoninergic 5-HT2A receptor (Homo sapiens, UniProt P28223)
Sequence (P28223 whole entry): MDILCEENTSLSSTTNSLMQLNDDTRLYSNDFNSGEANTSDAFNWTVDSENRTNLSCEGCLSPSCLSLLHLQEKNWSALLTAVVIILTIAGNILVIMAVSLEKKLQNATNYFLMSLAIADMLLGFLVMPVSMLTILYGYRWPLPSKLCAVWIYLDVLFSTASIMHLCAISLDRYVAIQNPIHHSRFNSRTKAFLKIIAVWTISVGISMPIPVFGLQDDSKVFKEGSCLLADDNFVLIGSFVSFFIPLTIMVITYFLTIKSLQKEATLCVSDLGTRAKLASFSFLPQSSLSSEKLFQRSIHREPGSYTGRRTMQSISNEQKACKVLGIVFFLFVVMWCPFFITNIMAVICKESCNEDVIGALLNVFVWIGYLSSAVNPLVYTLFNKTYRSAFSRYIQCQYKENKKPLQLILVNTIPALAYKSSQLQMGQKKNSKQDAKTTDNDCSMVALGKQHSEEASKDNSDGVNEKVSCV
assay: Cellular functional assay, serotoninergic 5-HT2A receptor (agonism/antagonism)
Format: cell-based
conditions: read-out: 5-HT2A -ag [%]
Return type: number; implicit unit %.

query: So what's the measured activation at 1 µM for this one? `O=S(=O)(NCCCCN1CCN(c2noc3ccccc23)CC1)c1ccc2cc(Cl)ccc2c1`
result: -2

query: What value of activation at 1 µM has been reported for the following compound? `O=S(=O)(NCCCCN1CCN(c2nsc3ccccc23)CC1)c1ccc2cc(Cl)ccc2c1`
result: 0

query: Given the compound `O=S(=O)(NCCCCN1CCN(c2nsc3ccccc23)CC1)c1ccc2ccccc2c1` , what is its reported activation at 1 µM?
result: 2

query: Returns the measured activation at 1 µM for the input compound. Input: `Cc1cccc(S(=O)(=O)NCCCN2CCC(c3noc4cc(F)ccc34)CC2)c1`
result: -1

query: Entry under review: `O=S(=O)(NCCCCN1CCN(c2noc3ccccc23)CC1)c1cccc2ccccc12` . Reported activation at 1 µM?
result: 2

query: I have this compound here, `Cc1cccc(S(=O)(=O)NCCCCN2CCN(c3noc4ccccc34)CC2)c1` , and I need its recorded activation at 1 µM.
result: -1

query: Fill in: activation at 1 µM of `O=c1[nH]c2ccc(S(=O)(=O)NCCCN3CCN(c4nsc5ccccc45)CC3)cc2o1` is ___
result: -2

query: Requested read-out: activation at 1 µM. Entry: `O=S(=O)(NCCCCN1CCN(c2nsc3ccccc23)CC1)c1cccc2ccccc12`
result: 0
